Assignment: determine reported SPOT peptide array binding signal intensity for the given binders.
Molecular target: AgSho1
Assay: SPOT peptide array binding signal intensity (averaged, normalized) (arbitrary units (background-subtracted, floor 0; scale differs between SH3 domains)); higher = stronger binding of the SH3 domain to the peptide

binder=MTKTPETSPPKRPMG assay_value="≤ 0"
binder=AAAPKHAPPPVPNET assay_value="≤ 0"
binder=APPLPPTAPPPPSLP assay_value="≤ 0"
binder=VQPTAAPATPPRHIS assay_value="≤ 0"
binder=LKPPIGRPPKFPKSP assay_value="≤ 0"

Let's switch to this binder now.
Enquiry: Please give the measured SPOT peptide array binding signal intensity for this binder: AATTSTPPLPRRRAT
Return: ≤ 0
